test system: MCF10A; experiment: percent viability (nuclei count relative to siNT); higher = more viable cells; settings: 20 nM; 72 h
Each item that follows carries a reported percent viability.
Write down the numeric answer in % and omit the unit.

As a guide, the following entries are already answered.
# monomer sequence, result units, val
measured = [
    ("CCGUCGCCGCCACCCGAGCCG [hsa-miR-1181]", "%", 128),
    ("UAAGGUGCAUCUAGUGCAGUUAG [hsa-miR-18b-5p]", "%", 41.9),
    ("UCCAGGGAGACAGUGUGUGAG [hsa-miR-7113-5p]", "%", 32.5),
    ("UUUGGUCCCCUUCAACCAGCUG [hsa-miR-133a]", "%", 34.5),
    ("UUUAAGCAGGAAAUAGAAUUUA [hsa-miR-4503]", "%", 100),
]

Please look at the following sequence next.
q: Tell me reported percent viability for CGGGGAGAGAACGCAGUGACGU [hsa-miR-3175] , tested with MCF10A.
a: 33.4
